# Assay Target: MYLK (human) (UniProt Q15746)
# Sequence (Q15746 whole entry, looked up): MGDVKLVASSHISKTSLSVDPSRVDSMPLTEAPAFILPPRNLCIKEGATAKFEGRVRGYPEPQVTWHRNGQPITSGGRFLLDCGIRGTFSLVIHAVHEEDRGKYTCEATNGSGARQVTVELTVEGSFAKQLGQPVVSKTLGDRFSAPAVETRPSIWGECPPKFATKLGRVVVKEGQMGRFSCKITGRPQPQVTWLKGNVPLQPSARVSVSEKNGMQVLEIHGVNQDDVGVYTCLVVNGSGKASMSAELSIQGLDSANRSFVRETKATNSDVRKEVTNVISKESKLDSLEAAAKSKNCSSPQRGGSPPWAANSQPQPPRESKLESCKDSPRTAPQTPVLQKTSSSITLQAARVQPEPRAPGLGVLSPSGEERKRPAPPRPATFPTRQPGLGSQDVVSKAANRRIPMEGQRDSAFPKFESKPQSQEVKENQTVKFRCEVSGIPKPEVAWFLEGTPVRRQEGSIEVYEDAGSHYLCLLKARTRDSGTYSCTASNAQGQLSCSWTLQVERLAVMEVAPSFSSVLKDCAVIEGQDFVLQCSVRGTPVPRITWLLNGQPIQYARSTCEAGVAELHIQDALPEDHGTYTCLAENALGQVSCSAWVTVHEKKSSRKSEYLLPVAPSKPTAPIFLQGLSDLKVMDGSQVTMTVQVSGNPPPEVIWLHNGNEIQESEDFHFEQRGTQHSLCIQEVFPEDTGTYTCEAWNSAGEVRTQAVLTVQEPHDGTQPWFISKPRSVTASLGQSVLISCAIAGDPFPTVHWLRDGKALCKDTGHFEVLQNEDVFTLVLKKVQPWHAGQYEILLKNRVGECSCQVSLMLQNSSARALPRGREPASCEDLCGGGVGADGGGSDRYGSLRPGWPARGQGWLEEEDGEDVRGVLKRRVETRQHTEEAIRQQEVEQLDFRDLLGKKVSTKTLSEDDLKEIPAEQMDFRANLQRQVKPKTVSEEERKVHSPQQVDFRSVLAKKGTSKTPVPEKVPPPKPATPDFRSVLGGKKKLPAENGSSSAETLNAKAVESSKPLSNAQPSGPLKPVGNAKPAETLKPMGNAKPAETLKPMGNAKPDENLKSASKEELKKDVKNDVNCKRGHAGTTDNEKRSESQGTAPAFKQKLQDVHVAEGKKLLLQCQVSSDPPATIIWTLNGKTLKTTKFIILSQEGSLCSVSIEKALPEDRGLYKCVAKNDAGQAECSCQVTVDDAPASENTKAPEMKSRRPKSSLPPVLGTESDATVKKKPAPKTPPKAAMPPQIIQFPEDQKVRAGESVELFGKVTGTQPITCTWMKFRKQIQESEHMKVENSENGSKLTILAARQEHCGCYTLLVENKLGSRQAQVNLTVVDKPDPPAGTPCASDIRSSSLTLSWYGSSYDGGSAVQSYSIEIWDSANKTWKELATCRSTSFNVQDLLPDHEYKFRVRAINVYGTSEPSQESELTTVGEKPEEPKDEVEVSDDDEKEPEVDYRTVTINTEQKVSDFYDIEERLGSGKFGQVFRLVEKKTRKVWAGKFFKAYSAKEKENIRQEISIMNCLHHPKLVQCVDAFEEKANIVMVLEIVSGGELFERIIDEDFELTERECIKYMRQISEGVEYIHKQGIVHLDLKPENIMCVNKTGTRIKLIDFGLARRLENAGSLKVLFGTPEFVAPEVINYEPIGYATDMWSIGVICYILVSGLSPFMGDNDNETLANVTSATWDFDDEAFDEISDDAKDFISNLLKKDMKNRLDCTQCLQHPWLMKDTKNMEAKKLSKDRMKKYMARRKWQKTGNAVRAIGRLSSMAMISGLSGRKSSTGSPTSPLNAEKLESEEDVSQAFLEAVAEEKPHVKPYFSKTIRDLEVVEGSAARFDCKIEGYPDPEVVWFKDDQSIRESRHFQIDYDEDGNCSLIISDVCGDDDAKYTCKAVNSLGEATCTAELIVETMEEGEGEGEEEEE
# Assay Notes: radiometric filter-binding kinase assay
# Measurement Parameters: compound 0.01 µM
Reported Endpoint: residual activity (%)

Worked examples follow.
COc1cc(O)c2c(c1)[C@H]1OC1C[C@H](O)[C@H](O)C(=O)/C=C\C[C@H](C)OC2=O (stereo partly specified)    108
O=C(Nc1nc2cc(C(F)(F)F)cc(NC3CC3)n2n1)c1cccnc1    96
C/C(=C1/C(=O)Nc2ccc(NC(N)=O)cc21)c1ccc[nH]1    89
CNc1nc(-c2ccc3c(N)n[nH]c3c2)cc(N2C[C@@H](C(=O)NC3CCCCC3)CC[C@H]2C)n1    116

(P) COc1ccc(N(C(=O)Nc2c(C)cccc2C)c2cc(Nc3ccc(N4CCN(C)CC4)cc3)ncn2)c(OC)c1
(Q) CNC(=O)C1[C@H]2O[C@@](C)([C@@H]1N)n1c3ccccc3c3c4c(c5c6ccccc6n2c5c31)C(=O)NC4 (stereo partly specified)
Thinking about recorded residual activity values, which is higher, P or Q ? Kindly give the label for the entry you pick.
P
(P: 99%, Q: 48%)

* * *

# Assay Target: MAPK9 (human)
# Assay Notes: radiometric filter-binding kinase assay
# Measurement Parameters: compound 1.0 µM
Reported Endpoint: residual activity (%)

Cc1ccc(-c2ccc3c(ccc4sc5c(c43)NC[C@@H](C)NC5=O)n2)cn1    111
COc1cc(C(=O)N2CCOCC2)c(F)cc1Nc1ncc(C(F)(F)F)c(NC2CC2)n1    108
FC(F)(F)c1ccc(-c2ccc(Oc3cncc4sc(-c5nn[nH]n5)cc34)cc2)cc1    113
COc1cc2ncn(-c3cc(OCc4ccccc4S(C)(=O)=O)c(C#N)s3)c2cc1OC    95
Oc1ccc(/C=C/c2cc(O)cc(O)c2)cc1    95
O=C(NCCCNc1nc(Nc2cccc(CN3CCOCC3)c2)ncc1C1CC1)C1CCC1    106
Cc1cccc(-c2nn(C(=S)Nc3ccccc3)cc2-c2ccnc3ccccc23)n1    90

(P) Cn1nc(Nc2ccc(F)cc2)c2c(N)ncnc21
(Q) NS(=O)(=O)OC[C@@H]1C[C@@H](n2ccc3c(N[C@H]4CCc5ccccc54)ncnc32)C[C@@H]1O
(R) COc1ccc(N(C(=O)Nc2c(C)cccc2C)c2cc(Nc3ccc(N4CCN(C)CC4)cc3)ncn2)c(OC)c1
# ascending order, key=residual activity Reply format: the labels, ordered as requested.
R, Q, P
(R: 21%, Q: 83%, P: 122%)

* * *

# Assay Target: UniProt P49841
# Sequence (P49841 whole entry, looked up): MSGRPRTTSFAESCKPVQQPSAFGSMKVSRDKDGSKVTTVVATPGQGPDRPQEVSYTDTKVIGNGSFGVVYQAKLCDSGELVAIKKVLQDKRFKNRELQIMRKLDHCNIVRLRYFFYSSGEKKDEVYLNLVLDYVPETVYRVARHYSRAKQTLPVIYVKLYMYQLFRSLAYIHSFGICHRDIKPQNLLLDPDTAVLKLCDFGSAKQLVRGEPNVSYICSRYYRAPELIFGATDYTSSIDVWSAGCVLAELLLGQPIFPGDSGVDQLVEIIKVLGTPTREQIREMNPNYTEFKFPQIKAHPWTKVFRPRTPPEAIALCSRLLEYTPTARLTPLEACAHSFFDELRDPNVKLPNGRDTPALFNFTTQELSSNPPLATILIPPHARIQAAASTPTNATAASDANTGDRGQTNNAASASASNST
# Assay Notes: radiometric filter-binding kinase assay
# Measurement Parameters: compound 0.01 µM
Reported Endpoint: residual activity (%)

(I) COc1cc(O)c2c(c1)[C@H]1OC1C[C@H](O)[C@H](O)C(=O)/C=C\C[C@H](C)OC2=O (stereo not given in full)
(II) CNC(=O)C1[C@H]2O[C@@](C)([C@@H]1N)n1c3ccccc3c3c4c(c5c6ccccc6n2c5c31)C(=O)NC4 (stereo not given in full)
Of I versus II , which is the one with smaller reported residual activity? API: response body contains the label of the selected item.
II

* * *

# Assay Target: PRKCZ (human) (UniProt Q05513)
# Sequence (Q05513 whole entry, looked up): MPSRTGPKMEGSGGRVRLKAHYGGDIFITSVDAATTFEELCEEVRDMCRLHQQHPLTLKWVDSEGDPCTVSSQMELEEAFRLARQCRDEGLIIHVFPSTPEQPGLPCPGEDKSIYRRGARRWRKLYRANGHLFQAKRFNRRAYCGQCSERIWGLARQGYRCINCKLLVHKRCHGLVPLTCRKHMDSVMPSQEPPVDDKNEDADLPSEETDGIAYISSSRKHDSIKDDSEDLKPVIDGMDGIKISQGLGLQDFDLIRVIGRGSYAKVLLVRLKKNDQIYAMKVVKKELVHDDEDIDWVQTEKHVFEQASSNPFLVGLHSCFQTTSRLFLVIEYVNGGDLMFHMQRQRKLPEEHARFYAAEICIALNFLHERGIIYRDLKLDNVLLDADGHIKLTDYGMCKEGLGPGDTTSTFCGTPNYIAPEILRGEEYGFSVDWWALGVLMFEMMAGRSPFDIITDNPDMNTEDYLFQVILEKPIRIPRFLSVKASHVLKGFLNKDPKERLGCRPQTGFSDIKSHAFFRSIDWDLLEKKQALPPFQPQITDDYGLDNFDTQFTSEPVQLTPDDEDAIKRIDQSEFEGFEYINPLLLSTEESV
# Assay Notes: radiometric filter-binding kinase assay
# Measurement Parameters: compound 1.0 µM
Reported Endpoint: residual activity (%)

(a) O=C(O)c1cc(N=Nc2ccc(S(=O)(=O)Nc3ccccn3)cc2)ccc1O
(b) O=c1c(O)c(-c2ccc(O)c(O)c2)oc2cc(O)c(O)c(O)c12
(c) CNC(=O)C1[C@H]2O[C@@](C)([C@@H]1N)n1c3ccccc3c3c4c(c5c6ccccc6n2c5c31)C(=O)NC4 (stereo partly specified)
Rank the listed compounds, smallest residual activity first and largest last. Answer by naming the labels in the order asked.
c, b, a
(c: 15%, b: 62%, a: 96%)

(a) COc1cc(O)c2c(c1)/C=C/C[C@H](O)[C@H](O)C(=O)/C=C\C[C@H](C)OC2=O
(b) Oc1ccc2ccccc2c1SSc1c(O)ccc2ccccc12
Kindly compare a with b and tell me which has the lower residual activity figure. Answer with the label corresponding to your selection.
b

(a) O=C(O)c1ccc(-c2c[nH]c3ncc(-c4ccccc4)cc23)cc1C1CCCC1
(b) CN1C(=O)[C@@H](Cc2c[nH]c3ccccc23)NC1=S
Two entries are listed, a and b . Which one carries the higher residual activity? Refer to your chosen entry by its label in the reply.
a
(a: 105%, b: 70%)

(1) COc1ccc(N(C(=O)Nc2c(C)cccc2C)c2cc(Nc3ccc(N4CCN(C)CC4)cc3)ncn2)c(OC)c1
(2) CCn1c(-c2nonc2N)nc2cncc(CNC3CCNCC3)c21
Of 1 versus 2 , which is the one with smaller reported residual activity? Lab note: record the label of whichever item you select.
2

(1) FC(F)(F)c1ccc(-c2ccc(Oc3cncc4sc(-c5nn[nH]n5)cc34)cc2)cc1
(2) Cn1c(=O)c2c(ncn2C)n(C)c1=O
So which one has the bigger residual activity here, 1 or 2 ? State the label of the item chosen.
1
(1: 126%, 2: 88%)

* * *

# Assay Target: AURKA (human)
# Assay Notes: radiometric filter-binding kinase assay
# Measurement Parameters: compound 10.0 µM
Reported Endpoint: residual activity (%)

O=C(NOCC(O)CO)c1ccc(F)c(F)c1Nc1ccc(I)cc1Cl (stereo not given)    104
COC(=O)/C=C/C(=O)OC    117
Cc1ccc(Sc2cnc(Nc3cccc(Br)n3)s2)cc1C(=O)N1CCN(C(=O)CN)CC1    0
NS(=O)(=O)OC[C@@H]1C[C@@H](n2ccc3c(N[C@H]4CCc5ccccc54)ncnc32)C[C@@H]1O    97
COc1cc(C(=O)N2CCOCC2)c(F)cc1Nc1ncc(C(F)(F)F)c(NC2CC2)n1    81
COc1cc2ncn(-c3cc(OCc4ccccc4S(C)(=O)=O)c(C#N)s3)c2cc1OC    6
O=C(N[C@@H](COc1ccc2[nH]c(=O)[nH]c2c1)c1ccccc1)c1cccn(Cc2ccc(F)c(F)c2)c1=O    103
O=C(Nc1ccccc1-c1cn2c(CN3CCNCC3)csc2n1)c1cnc2ccccc2n1    94
NC(=O)c1ccc(-c2ccc(Oc3cncc4sc(-c5nn[nH]n5)cc34)cc2)cc1    78
FC(F)(F)c1ccc(-c2ccc(Oc3cncc4sc(-c5nn[nH]n5)cc34)cc2)cc1    63

(P) O=C(NOC[C@H](O)CO)c1ccc(F)c(F)c1Nc1ccc(I)cc1Cl
(Q) C=CC(=O)N1CCC[C@@H](n2nc(-c3ccc(Oc4ccccc4)cc3)c3c(N)ncnc32)C1
Which shows the larger residual activity value: P or Q ? Indicate your choice by writing its label.
P

* * *

# Assay Target: TTK (human)
# Assay Notes: radiometric filter-binding kinase assay
# Measurement Parameters: compound 10.0 µM
Reported Endpoint: residual activity (%)

Cc1ccc(-c2ccc3c(ccc4sc5c(c43)NC[C@@H](C)NC5=O)n2)cn1    84
CCCC(CCC)C(=O)O    101
CN1C(=O)[C@@H](Cc2c[nH]c3ccccc23)NC1=S    106
O=S(=O)(c1ccc(F)c2nonc12)N1CCN(c2ncc(C(F)(F)F)cc2Cl)CC1    80
N#Cc1c(C2CCNCC2)cc(-c2c(O)cccc2OCC2CC2)nc1N    66
NC(=O)c1c(NC(=O)C2CC2)sc2c1CCCC2    80

* * *

# Assay Target: RPS6KA3 KD1 KD2 (human) (UniProt P51812)
# Sequence (P51812 whole entry, looked up): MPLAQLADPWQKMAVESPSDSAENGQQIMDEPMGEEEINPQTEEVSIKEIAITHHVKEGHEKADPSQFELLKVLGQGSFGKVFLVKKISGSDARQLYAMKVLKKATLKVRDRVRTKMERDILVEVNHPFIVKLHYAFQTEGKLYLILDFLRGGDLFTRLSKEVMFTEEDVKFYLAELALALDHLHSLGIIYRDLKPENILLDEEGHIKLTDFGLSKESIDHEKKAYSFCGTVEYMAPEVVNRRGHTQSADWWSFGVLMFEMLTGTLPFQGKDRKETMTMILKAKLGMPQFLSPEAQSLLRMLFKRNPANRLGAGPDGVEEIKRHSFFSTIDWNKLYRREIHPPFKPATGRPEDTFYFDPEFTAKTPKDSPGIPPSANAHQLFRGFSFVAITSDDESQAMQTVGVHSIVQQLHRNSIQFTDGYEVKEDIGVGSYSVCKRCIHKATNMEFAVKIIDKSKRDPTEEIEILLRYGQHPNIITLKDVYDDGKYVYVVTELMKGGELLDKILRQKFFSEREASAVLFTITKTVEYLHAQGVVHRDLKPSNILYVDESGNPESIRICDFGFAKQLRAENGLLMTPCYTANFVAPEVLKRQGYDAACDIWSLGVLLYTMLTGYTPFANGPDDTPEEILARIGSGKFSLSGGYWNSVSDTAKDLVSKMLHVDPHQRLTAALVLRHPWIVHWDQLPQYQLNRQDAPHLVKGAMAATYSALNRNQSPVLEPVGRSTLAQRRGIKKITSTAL
# Assay Notes: radiometric filter-binding kinase assay
# Measurement Parameters: compound 0.1 µM
Reported Endpoint: residual activity (%)

Example results:
NC(=O)c1cc(-c2ccnc(NC3CCCCC3)c2)nc(N2CCNCC2)c1    98
Cc1ccc(Sc2cnc(Nc3cccc(Br)n3)s2)cc1C(=O)N1CCN(C(=O)CN)CC1    67
O=C(NCCCNc1nc(Nc2cccc(CN3CCOCC3)c2)ncc1C1CC1)C1CCC1    71
COc1cc(O)c2c(c1)/C=C/C[C@H](O)[C@H](O)C(=O)/C=C\C[C@H](C)OC2=O    106
Cc1cccc(-c2nn(C(=S)Nc3ccccc3)cc2-c2ccnc3ccccc23)n1    126

(A) C=CC(=O)N1CCC[C@@H](n2nc(-c3ccc(Oc4ccccc4)cc3)c3c(N)ncnc32)C1
(B) COc1ccc(-n2ncc3cnc(Nc4cc(OC)c(OC)c(OCCCN5CCN(C)CC5)c4)nc32)cc1
# compare residual activity for A vs B ; return the one with the smaller value Respond using the label that marks the chosen record.
B
(B: 38%, A: 103%)

* * *

# Assay Target: MARK4 (human)
# Assay Notes: radiometric filter-binding kinase assay
# Measurement Parameters: compound 0.1 µM
Reported Endpoint: residual activity (%)

Here is how some compounds turned out for residual activity.
COc1ccc(N(C(=O)Nc2c(C)cccc2C)c2cc(Nc3ccc(N4CCN(C)CC4)cc3)ncn2)c(OC)c1    101
COc1cc(O)c2c(c1)/C=C/C[C@H](O)[C@H](O)C(=O)/C=C\C[C@H](C)OC2=O    107
CN1CCN(CCOc2cc(OC3CCOCC3)c3c(Nc4c(Cl)ccc5c4OCO5)ncnc3c2)CC1    95
C=CC(=O)N1CCC[C@@H](n2nc(-c3ccc(Oc4ccccc4)cc3)c3c(N)ncnc32)C1    111
NC(=O)c1cc2c(-c3cccc(-c4ccccc4)c3)cnc(N)c2s1    88
O=C(O)c1ccc(-c2c[nH]c3ncc(-c4ccccc4)cc23)cc1C1CCCC1    110
O=C(N[C@@H](COc1ccc2[nH]c(=O)[nH]c2c1)c1ccccc1)c1cccn(Cc2ccc(F)c(F)c2)c1=O    150
CCCCCc1ccc(/C=C/[C@H](O)[C@@H](CO)NC)cc1    90
Cc1ccc(-c2ccc3c(ccc4sc5c(c43)NC[C@@H](C)NC5=O)n2)cn1    107
CN(C)C/C=C/C(=O)Nc1cccc(C(=O)Nc2ccc(Nc3nccc(-c4cccnc4)n3)cc2)c1    85

(A) Cc1cc(NC(=O)c2cccc(NC(=O)/C=C/CN(C)C)c2)ccc1Nc1nccc(-c2cccnc2)n1
(B) CNC(=O)C1[C@H]2O[C@@](C)([C@@H]1N)n1c3ccccc3c3c4c(c5c6ccccc6n2c5c31)C(=O)NC4 (stereo partly drawn)
(C) O=C(NCCCNc1nc(Nc2cccc(CN3CCOCC3)c2)ncc1C1CC1)C1CCC1
Task field, ranking: reported residual activity, descending order. Provide your answer as the labels ordered per the instruction.
A, C, B

These data points were gathered from the kinase profiling compilation of Christmann-Franck et al. (2016).
